- System: IFNα-induced pSTAT5 (Tyk2-mediated signal transduction)
- procedure-summary: IFNα-induced STAT phosphorylation in human whole blood
- Assay type: cell-based
- setup-conditions: 1 h incubation with compound, 1000 U/mL IFNα A/D for 15 min, CD3 positive population, read-out: Human Whole blood IFNa pSTAT5 IC50
# IC50 values compiled below
All answers are understood in nM, so give the number only.

compound-structure-string: [2H]C([2H])([2H])NC(=O)c1nnc(NC(=O)C2CC2)cc1Nc1cccc(-c2coc(C)n2)c1OC
IC50 [nM]: 63
--
compound-structure-string: [2H]C([2H])([2H])NC(=O)c1nnc(NC(=O)C2CC2)cc1Nc1nccc(-c2cnc(C(C)(C)O)cn2)c1OC
IC50 [nM]: 148
--
compound-structure-string: [2H]C([2H])([2H])NC(=O)c1nnc(NC(=O)C2CC2)cc1Nc1cccc(-c2ccc(C(C)(C)C#N)cn2)c1OC
IC50 [nM]: 426
--
compound-structure-string: [2H]C([2H])([2H])NC(=O)c1nnc(NC(=O)C2CC2)cc1Nc1nccc(-c2cnn(C3CC3)c2)c1OC
IC50 [nM]: 193
--
compound-structure-string: [2H]C([2H])([2H])NC(=O)c1nnc(NC(=O)C2CC2)cc1Nc1cccc(-c2csc(C)n2)c1OC
IC50 [nM]: 385

input: What does the record list as IC50 for [2H]C([2H])([2H])NC(=O)c1nnc(NC(=O)C2CC2)cc1Nc1cccc(-c2noc(COC(C)C)n2)c1OC ?
output: 13

input: Look up IC50 for this compound: [2H]C([2H])([2H])NC(=O)c1nnc(NC(=O)C2CC2)cc1Nc1cc(C)cc(-c2cnc(C3(O)CCC3)cn2)c1OC
output: 148

----------
- System: IFNα-induced pSTAT5 (Tyk2-mediated signal transduction)
- procedure-summary: IFNα-induced STAT phosphorylation in human whole blood
- Assay type: cell-based
- setup-conditions: 1 h incubation with compound, 1000 U/mL IFNα A/D for 15 min, CD3 positive population, read-out: Human Whole blood IFNa pSTAT5 IC50
reported-metric: pIC50
Formally, pIC50 is defined as -log10 of the concentration c, with c in mol/L.

Some compounds with recorded pIC50:
compound-structure-string: CNC(=O)c1nnc(NC(=O)C2CC2)cc1Nc1cccc(-c2nc(C)ns2)c1OC
reported-measurement: 7.29
--
compound-structure-string: CCOCc1nc(-c2cccc(Nc3cc(NC(=O)C4CC4)nnc3C(=O)NC)c2OC)no1
reported-measurement: 7.51
--
compound-structure-string: [2H]C([2H])([2H])NC(=O)c1nnc(NC(=O)C2CC2)cc1Nc1cccc(-c2cnc(C#N)cn2)c1OC
reported-measurement: 6.38

Could you now look at the following compound, please?
input: Value wanted: pIC50 (IFNα-induced pSTAT5 (Tyk2-mediated signal transduction)) of entry [2H]C([2H])([2H])NC(=O)c1nnc(NC(=O)C2CC2)cc1Nc1cccc(-c2cnc(C)cn2)c1OC
output: 6.61

----------
- Test system: IFNα-induced pSTAT5 (Tyk2-mediated signal transduction)
- procedure-summary: IFNα-induced STAT phosphorylation in human whole blood
- Format: cell-based
- setup-conditions: 1 h incubation with compound, 1000 U/mL IFNα A/D for 15 min, CD3 positive population, read-out: Human Whole blood IFNa pSTAT5 IC50
reported-metric: pIC50
Lab note — pIC50 values are minus log10 of concentrations in M.

Example compounds with recorded pIC50:
compound-structure-string: CNC(=O)c1nnc(NC(=O)C2CC2)cc1Nc1cccc(-c2cnc(F)cn2)c1OC
reported-measurement: 6.66

compound-structure-string: CNC(=O)c1nnc(NC(=O)C2CC2)cc1Nc1cccc(-c2cc(C)ncn2)c1OC
reported-measurement: 6.61

compound-structure-string: [2H]C([2H])([2H])NC(=O)c1nnc(NC(=O)C2CC2)cc1Nc1ccc(F)c(-c2cnn(C)c2)c1OC
reported-measurement: 6.70

compound-structure-string: [2H]C([2H])([2H])NC(=O)c1nnc(NC(=O)C2CC2)cc1Nc1cccc(-c2ccsn2)c1OC
reported-measurement: 6.92

compound-structure-string: [2H]C([2H])([2H])NC(=O)c1nnc(NC(=O)C2CC2)cc1Nc1cccc(-c2cocn2)c1OC
reported-measurement: 7.38

compound-structure-string: [2H]C([2H])([2H])NC(=O)c1nnc(NC(=O)C2CC2)cc1Nc1cccc(-c2noc(C(F)F)n2)c1OC
reported-measurement: 7.16

input: Looking for the measured pIC50 of [2H]C([2H])([2H])NC(=O)c1nnc(NC(=O)C2CC2)cc1Nc1nccc(-c2nccs2)c1OC , can you help?
output: 6.68
